- System: K-562 leukemia
- MEASUREMENT_PROTOCOL: NCI-60 one-dose screen, 48 h (100 = growth as untreated, 0 = no growth, -100 = all killed)
- TEST_CONDITIONS: 10 µM unless noted
Compounds without any hit were thinned out: in the full panel of roughly 83,000, 20% have a hit.
We use 30% as the dividing line for growth: on or above the line is t, below is f.

COMPOUND | TARGET_ENTITY | CLASS_LABEL
CCOc1cccc(/C=N/NC(=O)c2cccc(Nc3ccnc(C(F)(F)F)c3)c2)c1O | K-562 leukemia | f
COc1ccc(N2CCC(=S)NC2=S)cc1 | K-562 leukemia | t
C/C=C(\C)C(=O)N[C@H]1C(O)C[C@]2(C)C3CC[C@@]4(C)C(CC[C@@H]4C(C)N(C)C)C3CCC2C1O (stereo not given in full) | K-562 leukemia | f
O=C(NC1CC(F)C1)c1cc2cccnc2n1-c1ccc(Cl)c(Cl)c1 (stereo not given) | K-562 leukemia | t

Prompt line: Could you please find out whether COc1ccc(C2CC(c3cc(OC)c(OC)c(OC)c3)=NO2)cc1OCCCCOc1cc2c(cc1OC)C(=O)N1CCC[C@H]1C=N2 (stereo not given in full) has growth that meets 30% or exceeds it?
Response line: t
